Record set of pKd for target or system MdtM (Escherichia coli).
One number for each entry, as −log10 of the molar value.

>>> reported_value("C[C@H](CCC(=O)O)[C@H]1CC[C@H]2[C@@H]3[C@H](O)C[C@@H]4C[C@H](O)CC[C@]4(C)[C@H]3C[C@H](O)[C@]12C [cholate]")
4.62

Could you now consider this next compound?
C[C@H](CCC(=O)O)[C@H]1CC[C@H]2[C@@H]3CC[C@@H]4C[C@H](O)CC[C@]4(C)[C@H]3C[C@H](O)[C@]12C [deoxycholate] yielded pKd of 3.75
